Test system: COS-7 cells
ASSAY_PROCEDURE: Cytotoxicity assay (Alamar blue), COS-7
Format: cell-based, Monkey
CONDITION_CONTEXT: COS7, 24 h; read-out: In vitro cytotoxicity CC50 ± SD COS7
MEASUREMENT_KIND: CC50

Exercise: Endpoint output: CC50 of O=C(O)c1c(O)cccc1COCCc1ccccc1 . Value?
Solution: > 200 µM

----------
ASSAY_TARGET: SOX18-RBPJ interaction (Homo sapiens (Human))
Sequence (P35713 whole entry): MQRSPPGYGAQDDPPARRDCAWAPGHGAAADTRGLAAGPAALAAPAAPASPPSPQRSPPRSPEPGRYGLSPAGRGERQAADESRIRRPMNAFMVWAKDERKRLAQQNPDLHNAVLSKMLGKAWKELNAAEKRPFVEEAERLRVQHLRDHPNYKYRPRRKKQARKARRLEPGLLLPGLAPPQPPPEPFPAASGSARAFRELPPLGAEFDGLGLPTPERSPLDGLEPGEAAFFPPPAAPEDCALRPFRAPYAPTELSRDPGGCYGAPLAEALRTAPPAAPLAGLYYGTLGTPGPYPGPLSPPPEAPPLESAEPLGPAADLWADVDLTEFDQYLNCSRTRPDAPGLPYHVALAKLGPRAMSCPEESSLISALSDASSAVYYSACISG
ASSAY_PROCEDURE: ALPHAScreen SOX18-RBPJ protein-protein interaction
CONDITION_CONTEXT: ALPHAScreen; read-out: SOX18-RBPJ interaction disruption IC50
MEASUREMENT_KIND: IC50

Exercise: Endpoint output: IC50 of O=C(O)c1ccccc1Nc1cccc(C(F)(F)F)c1 [Flufenamic acid, reference compound] . Value?
Solution: ~444 µM
